Recorded IC50 values (5'-nucleotidase (Homo sapiens)) are given below.

COMPOUND: CNC(=O)C(OC[C@H]1O[C@@H](n2cnc3c(N)nc(Cl)nc32)[C@@H](F)[C@@H]1O)P(=O)(O)O (stereo partly drawn)
ASSAY_TARGET: 5'-nucleotidase (Homo sapiens)
Sequence (P21589 whole entry): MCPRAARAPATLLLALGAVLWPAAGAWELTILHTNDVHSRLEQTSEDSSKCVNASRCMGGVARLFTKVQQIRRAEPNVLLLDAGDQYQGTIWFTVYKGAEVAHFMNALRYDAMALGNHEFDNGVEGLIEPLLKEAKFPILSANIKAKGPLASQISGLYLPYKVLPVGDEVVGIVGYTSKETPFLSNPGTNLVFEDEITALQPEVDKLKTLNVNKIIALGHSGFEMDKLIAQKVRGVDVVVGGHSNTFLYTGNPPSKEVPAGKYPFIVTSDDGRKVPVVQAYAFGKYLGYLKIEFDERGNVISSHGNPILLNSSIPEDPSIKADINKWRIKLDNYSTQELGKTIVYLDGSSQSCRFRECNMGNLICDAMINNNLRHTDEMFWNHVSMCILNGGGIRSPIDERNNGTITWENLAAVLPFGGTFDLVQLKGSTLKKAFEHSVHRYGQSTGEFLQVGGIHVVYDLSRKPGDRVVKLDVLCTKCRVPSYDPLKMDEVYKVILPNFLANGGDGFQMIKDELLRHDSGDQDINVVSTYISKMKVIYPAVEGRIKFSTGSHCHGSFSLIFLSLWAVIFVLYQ
IC50: 12000 nM

COMPOUND: [N-]=[N+]=N[C@H]1[C@@H](O)[C@H](n2cnc3c(N)nc(Cl)nc32)O[C@@H]1COC(C(=O)O)C(=O)O
ASSAY_TARGET: 5'-nucleotidase (Homo sapiens)
IC50: > 50000 nM

COMPOUND: N#CCC(OC[C@H]1O[C@@H](n2cnc3c(N)nc(Cl)nc32)[C@@H](F)[C@@H]1O)(C(=O)O)C(=O)O
ASSAY_TARGET: 5'-nucleotidase (Homo sapiens)
IC50: 1510 nM

COMPOUND: Nc1nc(Cl)nc2c1ncn2[C@@H]1O[C@H](COC(CC(=O)O)(C(=O)O)C(=O)O)[C@@H](O)[C@@H]1F
ASSAY_TARGET: 5'-nucleotidase (Homo sapiens)
IC50: 2560 nM

COMPOUND: Nc1nc(Cl)nc2c1ncn2[C@@H]1O[C@H](COC(Cc2cnc(C(=O)O)s2)(C(=O)O)C(=O)O)[C@@H](O)[C@@H]1F
ASSAY_TARGET: 5'-nucleotidase (Homo sapiens)
IC50: 602 nM

# value of IC50, 5'-nucleotidase (Homo sapiens), item `O=C(O)C(OC[C@H]1O[C@@H](n2cnc3c(NCc4ccccc4)nc(Cl)nc32)[C@@H](F)[C@@H]1O)C(=O)O` = 8780 nM

Observed IC50, 5'-nucleotidase (Homo sapiens), CCOC(=O)C(Cc1ccc(OC(F)(F)F)cc1)(OC[C@H]1O[C@@H](n2cnc3c(N)nc(Cl)nc32)[C@@H](F)[C@@H]1O)C(=O)O (stereo partly drawn) : 718 nM

The compound `N#Cc1ccc(CC(OC[C@H]2O[C@@H](n3cnc4c(N)nc(Cl)nc43)[C@@H](F)[C@@H]2O)(C(=O)O)C(=O)O)cc1F` , when measured on 5'-nucleotidase (Homo sapiens), yielded IC50 of 887 nM
